Listed here are compounds together with their documented Ki.
Target: human cloned 5-HT6 receptors (Homo sapiens, UniProt P50406)
Construct: expressed in transfected cells; host or cells: Hela cells
Sequence (P50406 whole entry): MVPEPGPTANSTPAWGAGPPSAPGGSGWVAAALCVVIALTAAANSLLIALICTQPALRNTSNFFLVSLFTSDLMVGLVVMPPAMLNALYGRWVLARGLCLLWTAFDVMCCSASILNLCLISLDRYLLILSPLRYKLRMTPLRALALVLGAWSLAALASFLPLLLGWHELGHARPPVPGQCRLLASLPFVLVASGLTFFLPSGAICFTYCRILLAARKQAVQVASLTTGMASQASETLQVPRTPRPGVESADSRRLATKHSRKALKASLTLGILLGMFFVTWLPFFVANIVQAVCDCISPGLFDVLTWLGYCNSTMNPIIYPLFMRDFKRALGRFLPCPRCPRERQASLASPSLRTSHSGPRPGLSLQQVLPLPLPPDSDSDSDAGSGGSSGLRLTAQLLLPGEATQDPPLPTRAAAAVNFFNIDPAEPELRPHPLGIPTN
Test: Comparative evaluation of 5-HT6 binding affinity ([3H]-LSD displacement, Hela cell membranes)
Conditions: [3H]-LSD 3.0 nM; membranes of Hela cells expressing human cloned 5-HT6 receptors; 120 min, room temperature; read-out: 5-HT6 Binding Ki
Write it as a number; the unit nM goes unstated.

Take a look at these entries with their results.
O=S(=O)(c1cccc2cccnc12)n1cc(CC2CCNCC2)c2cc(F)ccc21 [Example 20]: 2
O=S(=O)(c1ccc(Cl)s1)n1cc(CC2CCNCC2)c2ccc(F)cc21 [Example 25]: 18
O=S(=O)(c1ccccc1F)n1cc(CC2CCNCC2)c2ccc(F)cc21 [Example 26]: 17
Nc1ccc(S(=O)(=O)n2cc(CC3CCNCC3)c3cc(F)ccc32)cc1 [Example 7]: 1

Query string: Which measured Ki value corresponds to Nc1ccc(S(=O)(=O)n2cc(CC3CCNCC3)c3ccc(F)cc32)cc1 [Example 28] ?
Result string: 3

Query string: Which measured Ki value corresponds to COc1ccc(S(=O)(=O)n2cc(CC3CCNCC3)c3cc(F)ccc32)cc1OC [Example 18] ?
Result string: 8

Query string: Which measured Ki value corresponds to O=S(=O)(c1cccc(F)c1)n1cc(CC2CCNCC2)c2ccc(F)cc21 [Example 27] ?
Result string: 29

Query string: Which measured Ki value corresponds to O=S(=O)(c1ccccc1)n1cc(CC2CCNCC2)c2ccc(F)cc21 [Example 21] ?
Result string: 13

Query string: Which measured Ki value corresponds to N#Cc1ccc(S(=O)(=O)n2cc(CC3CCNCC3)c3cc(F)ccc32)cc1 [Example 19] ?
Result string: 162
